Value source: the supplement of paper PMC11246515

MEASUREMENT_DESCRIPTION: total protein half-life in vivo (active degradation + dilution); higher = more stable protein
APPLIED_CONDITIONS: E. coli NCM3722 delta-clpP; growth: N-lim chemostat; doubling time 6 h

| ENTRY_SEQUENCE | total protein half-life in vivo / h |
| --- | --- |
| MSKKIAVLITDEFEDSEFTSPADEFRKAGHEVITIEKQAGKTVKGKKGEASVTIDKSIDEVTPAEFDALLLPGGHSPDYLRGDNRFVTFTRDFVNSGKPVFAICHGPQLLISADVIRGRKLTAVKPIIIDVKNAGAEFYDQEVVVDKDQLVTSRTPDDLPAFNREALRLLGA | 4.34 |
| MHPMLNIAVRAARKAGNLIAKNYETPDAVEASQKGSNDFVTNVDKAAEAVIIDTIRKSYPQHTIITEESGELEGTDQDVQWVIDPLDGTTNFIKRLPHFAVSIAVRIKGRTEVAVVYDPMRNELFTATRGQGAQLNGYRLRGSTARDLDGTILATGFPFKAKQYATTYINIVGKLFNECADFRRTGSAALDLAYVAAGRVDGFFEIGLRPWDFAAGELLVREAGGIVSDFTGGHNYMLTGNIVAGNPRVVKAMLANMRDELSDALKR [P0ADG4] | 6.49 |
| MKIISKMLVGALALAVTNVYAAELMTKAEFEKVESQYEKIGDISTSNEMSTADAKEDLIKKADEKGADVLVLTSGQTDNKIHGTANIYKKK | 5.09 |
| MALLNVDKLSVHFGDESAPFRAVDRISYSVKQGEVVGIVGESGSGKSVSSLAIMGLIDYPGRVMAEKLEFNGQDLQRISEKERRNLVGAEVAMIFQDPMTSLNPCYTVGFQIMEAIKVHQGGNKSTRRQRAIDLLNQVGIPDPASRLDVYPHQLSGGMSQRVMIAMAIACRPKLLIADEPTTALDVTIQAQIIELLLELQQKENMALVLITHDLALVAEAAHKIIVMYAGQVVETGDAHAIFHAPRHPYTQALLRALPEFAQDKERLASLPGVVPGKYDRPNGCLLNPRCPYATDRCRAEEPALNMLADGRQSKCHYPLDDAGRPTL [P0AAG0] | 6.26 |
| MPTKPPYPREAYIVTIEKGKPGQTVTWYQLRADHPKPDSLISEHPTAQEAMDAKKRYEDPDKE [P0AAN5] | 5.03 |
| MSWISPELIEILLTILKAVVILLVVVTCGAFMSFGERRLLGLFQNRYGPNRVGWGGSLQLVADMIKMFFKEDWIPKFSDRVIFTLAPMIAFTSLLLAFAIVPVSPGWVVADLNIGILFFLMMAGLAVYAVLFAGWSSNNKYSLLGAMRASAQTLSYEVFLGLSLMGVVAQAGSFNMTDIVNSQAHVWNVIPQFFGFITFAIAGVAVCHRHPFDQPEAEQELADGYHIEYSGMKFGLFFVGEYIGIVTISALMVTLFFGGWQGPLLPPFIWFALKTAFFMMMFILIRASLPRPRYDQVMSFGWKICLPLTLINLLVTAAVILWQAQ [P0AFD4] | 6.49 |
| MRLGTFHKKKRFYINKIKINFLSFLFRNKINNQITDPAQVKSCLIIHDNNKLGDLIVLSSIYRELYSKGVKITLLTNRKGGEFLSNNKNIFEFCIKESTGFLEMLTLCKHLRDLQFDIVLDPFETMPSFKHSLILSSLKDSYILGFDHWYKRYYSFYHPHDECLKEHMSTRAIEILKHIYGEGKFSTNYDLHLPVDVEDKIKEFIGDTRIVIINPLGAKKICRLTFEQIKVIYQEVKTHFENYRIIFTGLPQDLLTIPILEIETLPFDEFIYTVALTKYSDFVISVDTALVHIAAAYHKPTLAFYPNSRTPEYPSHLIWSPNHHKSIQIVSPTYTVKDIDTETLTNSVKRLSCIDKK | 6.56 |
| MKTAYIAKQRQISFVKSHFSRQLEERLGLIEVQAPILSRVGDGTQDNLSGCEKAVQVKVKALPDAQFEVVHSLAKWKRQTLGQHDFSAGEGLYTHMKALRPDEDRLSPLHSVYVDQWDWERVMGDGERQFSTLKSTVEAIWAGIKATEAAVSEEFGLAPFLPDQIHFVHSQELLSRYPDLDAKGRERAIAKDLGAVFLVGIGGKLSDGHRHDVRAPDYDDWSTPSELGHAGLNGDILVWNPVLEDAFELSSMGIRVDADTLKHQLALTGDEDRLELEWHQALLRGEMPQTIGGGIGQSRLTMLLLQLPHIGQVQCGVWPAAVRESVPSLL | 4.18 |
| MSKSDVFHLGLTKNDLQGATLAIVPGDPDRVEKIAALMDKPVKLASHREFTTWRAELDGKPVIVCSTGIGGPSTSIAVEELAQLGIRTFLRIGTTGAIQPHINVGDVLVTTASVRLDGASLHFAPLEFPAVADFECTTALVEAAKSIGATTHVGVTASSDTFYPGQERYDTYSGRVVRHFKGSMEEWQAMGVMNYEMESATLLTMCASQGLRAGMVAGVIVNRTQQEIPNAETMKQTESHAVKIVVEAARRLL | 6.27 |
| METRREERIGQLLQELKRSDKLHLKDAAALLGVSEMTIRRDLNNHSAPVVLLGGYIVLEPRSASHYLLSDQKSRLVEEKRRAAKLAATLVEPDQTLFFDCGTTTPWIIEAIDNEIPFTAVCYSLNTFLALKEKPHCRAFLCGGEFHASNAIFKPIDFQQTLNNFCPDIAFYSAAGVHVSKGATCFNLEELPVKHWAMSMAQKHVLVVDHSKFGKVRPARMGDLKRFDIVVSDCCPEDEYVKYAQTQRIKLMY [P0ACK5] | 6.08 |
| MNALLSNPFKERLRKGEVQIGLWLSSTTAYMAEIAATSGYDWLLIDGEHAPNTIQDLYHQLQAVAPYASQPVIRPVEGSKPLIKQVLDIGAQTLLIPMVDTAEQARQVVSATRYPPYGERGVGASVARAARWGRIENYMAQVNDSLCLLVQVESKTALDNLDEILDVEGIDGVFIGPADLSASLGYPDNAGHPEVQRIIETSIRRIRAAGKAAGFLAVAPDMAQQCLAWGANFVAVGVDTMLYSDALDQRLAMFKSGKNGPRIKGSY | 2.69 |
